test: Selectivity index is changes in heart rate(cv dose) to the suppression of twitch response (ED95) in male Rhesus monkey; format: functional, Cercopithecidae

>  <compound>
COc1cc2c(cc1OC)C(c1cc(OC)c(OC)c(OC)c1)[N@+](C)(CCCOC(=O)/C=C/C(=O)OCCC[N@+]1(C)CCc3cc(OC)c(OC)cc3[C@H]1c1cc(OC)c(OC)c(OC)c1)CC2.[Cl-].[Cl-] (stereo partly drawn)

>  <Selectivity index>
0.65

$$$$
>  <compound>
COc1cc2c(cc1OC)[C@@H](c1cc(OC)c(OC)c(OC)c1)[N@+](C)(CCCOC(=O)/C=C(\Cl)C(=O)OCCC[N@+]1(C)CCc3cc(OC)c(OC)c(OC)c3[C@H]1Cc1cc(OC)c(OC)c(OC)c1)CC2.[Cl-].[Cl-]

>  <Selectivity index>
15

$$$$
>  <compound>
COc1cc2c(cc1OC)[C@@H](Cc1cc(OC)c(OC)c(OC)c1)[N+](C)(CCCOC(=O)CC/C=C/CCC(=O)OCCC[N+]1(C)CCc3cc(OC)c(OC)cc3[C@H]1Cc1cc(OC)c(OC)c(OC)c1)CC2.[Cl-].[Cl-] (stereo partly drawn) [MIVACURIUM CHLORIDE]

>  <Selectivity index>
24

$$$$
>  <compound>
COc1cc2c(cc1OC)[C@H](c1cc(OC)c(OC)c(OC)c1)[N@@+](C)(CCCOC(=O)/C=C(\Cl)C(=O)OCCC[N@@+]1(C)CCc3cc(OC)c(OC)cc3[C@@H]1c1cc(OC)c(OC)c(OC)c1)CC2.[Cl-].[Cl-]

>  <Selectivity index>
1.5

$$$$
>  <compound>
COc1cc2c(cc1OC)[C@H](c1cc(OC)c(OC)c(OC)c1)[N@@+](C)(CCCOC(=O)CCCCCCC(=O)OCCC[N@+]1(C)CCc3cc(OC)c(OC)cc3[C@H]1Cc1cc(OC)c(OC)c(OC)c1)CC2.[Cl-].[Cl-]

>  <Selectivity index>
12

$$$$
>  <compound>
COc1ccc([C@H]2c3cc(OC)c(OC)cc3CC[N@+]2(C)CCCOC(=O)/C=C(\Cl)C(=O)OCCC[N@+]2(C)CCc3cc(OC)c(OC)cc3[C@H]2Cc2cc(OC)c(OC)c(OC)c2)cc1.[Cl-].[Cl-]

>  <Selectivity index>
6

$$$$
>  <compound>
COc1cc2c(cc1OC)[C@H](c1cc(OC)c(OC)c(OC)c1)[N@@+](C)(CCCOC(=O)/C=C(\F)C(=O)OCCC[N@+]1(C)CCc3cc(OC)c(OC)cc3[C@H]1Cc1cc(OC)c(OC)c(OC)c1)CC2.[Cl-].[Cl-]

>  <Selectivity index>
37

$$$$
>  <compound>
COc1cc(CC2c3cc4c(cc3CC[N@@+]2(C)CCCOC(=O)/C(Cl)=C/C(=O)OCCC[N@+]2(C)CCc3cc5c(cc3[C@H]2Cc2cc(OC)c(OC)c(OC)c2)OCO5)OCO4)cc(OC)c1OC.[Cl-].[Cl-] (stereo partly drawn)

>  <Selectivity index>
1.3

$$$$

* * *

assay: Dose required for 95% suppression of the twitch response at the extensor digitorum in male Rhesus monkey.; format: functional, Cercopithecidae; settings: Cercopithecidae; read-out: ED95
measurementKind: ED95 (mg/kg)

>  <entrySmiles>
COc1cc2c(cc1OC)[C@H](c1cc(OC)c(OC)c(OC)c1)[N@@+](C)(CCCOC(=O)CCC(F)(F)C(=O)OCCC[N@+]1(C)CCc3cc(OC)c(OC)cc3[C@H]1Cc1cc(OC)c(OC)c(OC)c1)CC2.[Cl-].[Cl-]

>  <unitLabel>
mg/kg

>  <reading>
0.22

$$$$
>  <entrySmiles>
COc1cc2c(cc1OC)[C@@H](Cc1cc(OC)c(OC)c(OC)c1)[N@+](C)(CCCOC(=O)/C(Cl)=C/C(=O)OCCC[N@+]13CCc4cc(OC)c(OC)cc4[C@H]1c1cc(OC)c(OC)cc1CC3)CC2.[Cl-].[Cl-]

>  <unitLabel>
mg/kg

>  <reading>
0.078

$$$$
>  <entrySmiles>
COc1cc2c(cc1OC)[C@H](c1cc(OC)c(OC)c(OC)c1)[N@@+](C)(CCCOC(=O)C(F)(F)CC(=O)OCCC[N@+]1(C)CCc3cc(OC)c(OC)cc3[C@H]1Cc1cc(OC)c(OC)c(OC)c1)CC2.[Cl-].[Cl-]

>  <unitLabel>
mg/kg

>  <reading>
0.39

$$$$
>  <entrySmiles>
COc1cc2c(cc1OC)[C@H](c1ccc(F)c(F)c1)[N@@+](C)(CCCOC(=O)/C=C(\Cl)C(=O)OCCC[N@+]1(C)CCc3cc(OC)c(OC)cc3[C@H]1Cc1cc(OC)c(OC)c(OC)c1)CC2.[Cl-].[Cl-]

>  <unitLabel>
mg/kg

>  <reading>
0.09

$$$$
>  <entrySmiles>
COc1cc2c(cc1OC)[C@@H](c1cc(OC)c(OC)c(OC)c1)[N@+](C)(CCCOC(=O)CCCCCCC(=O)OCCC[N@+]1(C)CCc3cc(OC)c(OC)cc3[C@H]1Cc1cc(OC)c(OC)c(OC)c1)CC2.[Cl-].[Cl-]

>  <unitLabel>
mg/kg

>  <reading>
0.103

$$$$

* * *

assay: Selectivity index is changes in heart rate(cv dose) to the suppression of twitch response (ED95) in male Rhesus monkey; assay type: functional, Cercopithecidae
measurementKind: Selectivity index

>  <entrySmiles>
COc1cc2c(cc1OC)[C@@H](Cc1cc(OC)c(OC)c(OC)c1)[N@+](C)(CCCOC(=O)/C(Cl)=C/C(=O)OCCC[N@+]13CCc4cc(OC)c(OC)cc4[C@H]1c1cc(OC)c(OC)cc1CC3)CC2.[Cl-].[Cl-]

>  <measurementKind>
Selectivity index

>  <reading>
5

$$$$
>  <entrySmiles>
COc1cc2c(cc1OC)[C@H](c1ccc(F)c(F)c1)[N@@+](C)(CCCOC(=O)/C=C(\Cl)C(=O)OCCC[N@+]1(C)CCc3cc(OC)c(OC)cc3[C@H]1Cc1cc(OC)c(OC)c(OC)c1)CC2.[Cl-].[Cl-]

>  <measurementKind>
Selectivity index

>  <reading>
18

$$$$
>  <entrySmiles>
COc1cc2c(cc1OC)[C@@H](c1cc(OC)c(OC)c(OC)c1)[N@+](C)(CCCOC(=O)/C=C(\Cl)C(=O)OCCC[N@+]1(C)CCc3cc(OC)c(OC)c(OC)c3[C@H]1Cc1cc(OC)c(OC)c(OC)c1)CC2

>  <measurementKind>
Selectivity index

>  <reading>
24

$$$$
>  <entrySmiles>
COc1cc2c(cc1OC)[C@H](c1cc(OC)c(OC)c(OC)c1)[N@@+](C)(CCCOC(=O)CC(F)(F)C(=O)OCCC[N@+]1(C)CCc3cc(OC)c(OC)c(OC)c3[C@H]1Cc1cc(OC)c(OC)c(OC)c1)CC2.[Cl-].[Cl-]

>  <measurementKind>
Selectivity index

>  <reading>
60

$$$$
>  <entrySmiles>
COc1cc2c(cc1OC)[C@H](c1cc(OC)c(OC)c(OC)c1)[N@@+](C)(CCCOC(=O)CC(F)(F)C(=O)OCCC[N@+]1(C)CCc3cc(OC)c(OC)cc3[C@H]1Cc1cc(OC)c(OC)c(OC)c1)CC2.[Cl-].[Cl-]

>  <measurementKind>
Selectivity index

>  <reading>
96

$$$$

* * *

Overview of recorded Duration for various compounds
test: Time from injection to 95% recovery of the twitch response at the ED95 dose in male Rhesus monkey.; type: functional, Cercopithecidae
measurementKind: Duration

>  <compound>
COc1cc2c(cc1OC)[C@H](c1cc(OC)c(OC)c(OC)c1)[N@@+](C)(CCCOC(=O)CCCCCC(=O)OCCC[N@+]1(C)CCc3cc(OC)c(OC)cc3[C@H]1Cc1cc(OC)c(OC)c(OC)c1)CC2.[Cl-].[Cl-]

>  <reading>
7.1 min

$$$$
>  <compound>
COc1cc2c(cc1OC)C(c1cc(OC)c(OC)c(OC)c1)[N@+](C)(CCCOC(=O)/C=C/C(=O)OCCC[N@+]1(C)CCc3cc(OC)c(OC)cc3[C@H]1c1cc(OC)c(OC)c(OC)c1)CC2.[Cl-].[Cl-] (stereo partly drawn)

>  <reading>
25.5 min

$$$$
>  <compound>
COc1cc2c(cc1OC)[C@@H](c1cc(OC)c(OC)c(OC)c1)[N@+](C)(CCCOC(=O)CCCCCCC(=O)OCCC[N@+]1(C)CCc3cc(OC)c(OC)cc3[C@H]1Cc1cc(OC)c(OC)c(OC)c1)CC2.[Cl-].[Cl-]

>  <reading>
8.6 min

$$$$

* * *

test: Time from injection to 95% recovery of the twitch response at the ED95 dose in male Rhesus monkey.; format: functional, Cercopithecidae
measurementKind: Duration (min)

>  <compound>
COc1cc2c(cc1OC)[C@H](c1cc(OC)c(OC)c(OC)c1)[N@@+](C)(CCCOC(=O)CCCCCCC(=O)OCCC[N@+]1(C)CCc3cc(OC)c(OC)cc3[C@H]1Cc1cc(OC)c(OC)c(OC)c1)CC2.[Cl-].[Cl-]

>  <reading>
10.9

$$$$
>  <compound>
COc1cc2c(cc1OC)[C@H](c1cc(OC)c(OC)c(OC)c1)N(CCCOC(=O)/C=C(\Cl)C(=O)OCCC[N@+]1(C)CCc3cc(OC)c(OC)cc3[C@H]1Cc1cc(OC)c(OC)c(OC)c1)CC2.Cl.[Cl-]

>  <reading>
5.4

$$$$
>  <compound>
COc1cc2c(cc1OC)[C@H](c1cc(OC)c(OC)c(OC)c1)[N@@+](C)(CCCOC(=O)/C=C(\Cl)C(=O)OCCC[N@+]1(C)CCc3cc(OC)c(OC)c(OC)c3[C@H]1Cc1cc(OC)c(OC)c(OC)c1)CC2.[Cl-].[Cl-]

>  <reading>
13.3

$$$$
>  <compound>
COc1cc2c(cc1OC)C(Cc1cc(OC)c(OC)c(OC)c1)[N@+](C)(CCCOC(=O)/C(Cl)=C/C(=O)OCCC[N@+]1(C)CCc3cc(OC)c(OC)cc3[C@H]1Cc1cc(OC)c(OC)c(OC)c1)CC2.[Cl-].[Cl-] (some centres undefined)

>  <reading>
7.1

$$$$
